Could you please report measured pEC50 for the items listed next?
target: human orexin-2 receptor (OX2R) (Homo sapiens); construct: expressed in transfected cells; experiment: Human OX2R IP1 assay; type: cell-based; details: T-Rex CHO cells stably overexpressing human OX2R; IP1 accumulation (HTRF); 1 hr at 37 degrees C
pEC50: −log10 of the molar value.

The examples below pair each entry with its known result.
[[record]]
compound = "CS(=O)(=O)N[C@H]1CCN(c2cccnn2)C[C@H]1OC[C@H]1CC[C@@H](c2ccccc2)CC1 (single isomer, unassigned)"
readout_kind = "pEC50"
experimental_result = "> 7.00"

[[record]]
compound = "CS(=O)(=O)N[C@@H]1CCN(C(=O)C2CC2)C[C@@H]1OC[C@H]1CC[C@@H](c2ccccc2)CC1 (single isomer, unassigned)"
readout_kind = "pEC50"
experimental_result = "5.00 to 7.00"

[[record]]
compound = "Cn1ccc(N2CC[C@H](NS(C)(=O)=O)[C@H](OC[C@H]3CC[C@@H](c4ccccc4)CC3)C2)n1 (single isomer, unassigned)"
readout_kind = "pEC50"
experimental_result = "5.00 to 7.00"

[[record]]
compound = "CS(=O)(=O)N[C@@H]1CCN(C(=O)C2(F)CC2)C[C@@H]1OC[C@H]1CC[C@@H](c2ccccc2)CC1 (single isomer, unassigned)"
readout_kind = "pEC50"
experimental_result = "> 7.00"

[[record]]
compound = "CS(=O)(=O)N[C@@H]1CCN(CC2(F)CCC2)C[C@@H]1OCC1CCC(c2ccccc2)CC1 (single isomer, unassigned)"
readout_kind = "pEC50"
experimental_result = "< 5.00"


Tell me pEC50 reported for Cn1ccc(N2CC[C@@H](NS(C)(=O)=O)[C@@H](OC[C@H]3CC[C@@H](c4ccccc4)CC3)C2)n1 (single isomer, unassigned)
< 5.00

----------
target: human orexin-2 receptor (OX2R) (Homo sapiens, UniProt O43614); assay: Human OX2R IP1 assay; conditions: T-Rex CHO cells stably overexpressing human OX2R; IP1 accumulation (HTRF); 1 hr at 37 degrees C
Sequence (O43614 whole entry): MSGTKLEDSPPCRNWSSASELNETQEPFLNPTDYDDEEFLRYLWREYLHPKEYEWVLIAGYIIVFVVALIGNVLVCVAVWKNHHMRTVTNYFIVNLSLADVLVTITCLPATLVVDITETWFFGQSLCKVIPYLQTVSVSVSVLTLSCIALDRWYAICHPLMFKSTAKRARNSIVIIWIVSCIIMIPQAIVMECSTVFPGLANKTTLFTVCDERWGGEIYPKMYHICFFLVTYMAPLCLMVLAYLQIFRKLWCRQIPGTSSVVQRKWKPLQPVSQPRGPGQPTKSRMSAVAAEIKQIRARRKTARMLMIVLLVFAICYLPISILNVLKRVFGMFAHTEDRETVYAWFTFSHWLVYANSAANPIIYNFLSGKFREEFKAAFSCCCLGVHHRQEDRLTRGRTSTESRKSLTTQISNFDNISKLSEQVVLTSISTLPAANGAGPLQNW
pEC50: −log10 of the molar value.
Could you please report measured pEC50 for the items listed next?

The examples below pair each entry with its known result.
[[record]]
compound = "CS(=O)(=O)N[C@H]1CCN(C(=O)C2(F)CCC2)C[C@H]1OCC1CCC(c2ccccc2)CC1 (single isomer, unassigned) [Compound 49]"
readout_kind = "pEC50"
experimental_result = "> 7.00"

[[record]]
compound = "Cn1cnc(N2CC[C@H](NS(C)(=O)=O)[C@H](OCC3CCC(c4ccccc4)CC3)C2)c1 (single isomer, unassigned) [Compound 59]"
readout_kind = "pEC50"
experimental_result = "5.00 to 7.00"

[[record]]
compound = "CC1(C(=O)N2CC[C@@H](NS(C)(=O)=O)[C@@H](OCC3CCC(c4ccccc4)CC3)C2)COC1 (single isomer, unassigned) [Compound 46]"
readout_kind = "pEC50"
experimental_result = "< 5.00"


Working through the 2 compounds below one at a time, give pEC50 for each.
1. CS(=O)(=O)N[C@H]1CCN(C2COC2)C[C@H]1OC[C@H]1CC[C@@H](c2ccccc2)CC1 (single isomer, unassigned) [Compound 51]
2. CS(=O)(=O)N[C@@H]1CCN(C(=O)C2(O)CCC2)C[C@@H]1OC[C@H]1CC[C@@H](c2ccccc2)CC1 (single isomer, unassigned) [Compound 43]

["< 5.00", "> 7.00"]

Tell me pEC50 reported for C[C@@H](C1COC1)N1CC[C@H](NS(C)(=O)=O)[C@H](OCC2CCC(c3ccccc3)CC2)C1 (single isomer, unassigned) [Compound 61]
< 5.00
